B1: EDARADD (parent)
chain: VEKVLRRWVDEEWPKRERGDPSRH

Variants of: B1
Assay: protein stability index of a GFP-peptide fusion (GPS, HEK-293T) (PSI 1-6); higher = more stable;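 note: lentivirally expressed fusions sorted by FACS into six bins by GFP to DsRed ratio, PSI derived from sequencing read proportions per bin multiplied by bin number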
Details: c terminus: a fixed tail appended
Measurement Label: protein stability index
The answer should be written as a number, with no unit following it.

[[record]]
residue_change = "G19I"
experimental_value = 2.6


Prompt: What value of protein stability index has been reported for the following variant? E17R
Response: 2.85

Prompt: What value of protein stability index has been reported for the following variant? R6Q
Response: 3.79

Prompt: What value of protein stability index has been reported for the following variant? W13L
Response: 3.38

Prompt: What value of protein stability index has been reported for the following variant? R6W
Response: 3.38

Prompt: What value of protein stability index has been reported for the following variant? W8D
Response: 4.56

Prompt: What value of protein stability index has been reported for the following variant? K15Y
Response: 2.31

Prompt: What value of protein stability index has been reported for the following variant? E17T
Response: 2.45

Prompt: What value of protein stability index has been reported for the following variant? S22Y
Response: 2.52

Prompt: What value of protein stability index has been reported for the following variant? P14L
Response: 2.13

Prompt: What value of protein stability index has been reported for the following variant? R23H
Response: 3.38

Prompt: What value of protein stability index has been reported for the following variant? E12T
Response: 2.27

The reported measurements were obtained from the supplement of paper PMC10567573.
